SYSTEM UNDER TEST: T1, human IL-12 (human, UniProt P29459 23-219; P29460 23-328)
T1 construct: also called interleukin 12
T1 sequence (looked up) 1: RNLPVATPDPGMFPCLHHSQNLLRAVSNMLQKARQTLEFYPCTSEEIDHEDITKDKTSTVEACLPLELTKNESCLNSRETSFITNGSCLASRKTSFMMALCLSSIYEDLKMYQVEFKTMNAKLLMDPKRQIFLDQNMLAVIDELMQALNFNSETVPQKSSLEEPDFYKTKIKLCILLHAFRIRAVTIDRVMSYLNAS
T1 sequence (looked up) 2: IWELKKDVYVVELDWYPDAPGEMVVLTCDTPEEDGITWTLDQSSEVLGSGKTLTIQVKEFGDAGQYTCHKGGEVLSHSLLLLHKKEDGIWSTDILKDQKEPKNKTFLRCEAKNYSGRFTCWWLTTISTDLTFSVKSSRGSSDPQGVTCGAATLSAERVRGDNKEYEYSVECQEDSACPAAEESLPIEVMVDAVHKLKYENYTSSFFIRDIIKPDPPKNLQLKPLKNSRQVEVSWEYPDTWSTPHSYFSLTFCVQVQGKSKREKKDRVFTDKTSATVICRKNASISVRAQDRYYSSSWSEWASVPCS
METHOD: SPR, IL-12
OBSERVED PROPERTY: Kd (nM)
One number for each entry, in nM.

Input Briakinumab (antibody, V domains shown, Fully human IgG1; also called ABT 874; J 695) VH: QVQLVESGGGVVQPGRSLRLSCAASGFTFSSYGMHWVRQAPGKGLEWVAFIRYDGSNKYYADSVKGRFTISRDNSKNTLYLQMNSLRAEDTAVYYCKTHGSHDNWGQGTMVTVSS VL: QSVLTQPPSVSGAPGQRVTISCSGSRSNIGSNTVKWYQQLPGTAPKLLIYYNDQRPSGVPDRFSGSKSGTSASLAITGLQAEDEADYYCQSYDRYTHPALLFGTGTKVTVLG . Output Kd: 0.07
